experiment.notes: Quantitative High-Throughput drug screen in 47 multiple myeloma cell lines against the NCATS MIPE library collection: PE2_PLB cell viability assay (AID 1919869); further: nearly all actives have a fitted effect of over 35% in size
cond: PE2_PLB myeloma cells viability, ATP luminescence, 48 h; series mostly up to 45.8 µM
From the text: PI: Beverly A. Mock Ph.D. Laboratory of Cancer Biology and Genetics, Center for Cancer Research, National Cancer Institute, National Institute of Health, Bethesda, Maryland […] 5; Detector; 425V; Luminescence; Viewlux PerkinElmer. […] 1. […] Briefly, the corresponding myeloma cell lines were screened in 1,536-well plates with 500 cells, 5-uL per well for inhibition of cell viability (assessed by measuring ATP levels with CellTiterGlo). […]
Results filed as inconclusive are left out. Activity calls are given as the source filed them. The call rests on the fitted dose curve; in most records, active means well fitted cell-killing curve with a large enough effect; inconclusive means small, poorly fitted or top-dose-only effect, or effect the other way; inactive means no such curve, though single readings can be large or run the other way.
Outcome codes: TRUE (active), FALSE (inactive)

>>> label_class("N=C1SC(=Cc2ccc(-c3ccc4c(c3)C(=O)NC4=O)o2)C(=O)N1c1ccc(Br)cc1")
"TRUE"
>>> label_class("COc1cc2c(cc1Cc1cccc(Cl)c1F)c(=O)c(C(=O)O)cn2[C@H](CO)C(C)C")
"TRUE"
>>> label_class("CC1(COc2ccc3c(c2)ncn3-c2ccc3cccc(N4CCC(N)CC4)c3n2)COC1")
"TRUE"
>>> label_class("Cc1cc(NC(=O)Nc2ccc(N(C)C)cc2)c2cc(F)cc(F)c2n1")
"FALSE"
>>> label_class("Cc1ccccc1C(C(=O)NC1CCCCC1)N(C(=O)CNc1ccc(C#N)cc1)c1cccc(F)c1 (stereo not given)")
"FALSE"
>>> label_class("Cc1cn([C@@H]2C[C@@H](O)[C@H](CO)O2)c(=O)[nH]c1=O")
"FALSE"
>>> label_class("CN1CCN(c2cccc(Nc3nc4c(-c5ccc(S(C)(=O)=O)cc5)cccn4n3)c2)CC1")
"TRUE"
>>> label_class("CN1[C@H]2CC[C@H]1CC(OC(=O)c1c[nH]c3ccccc13)C2 (stereo not given in full)")
"FALSE"
>>> label_class("C=CCc1cccc(C=NNC(=O)CN2CCN(Cc3ccccc3)CC2)c1O")
"TRUE"
>>> label_class("C=C1[C@H](n2cnc3c(=O)[nH]c(N)nc32)C[C@H](O)[C@H]1CO")
"FALSE"

* * *

experiment.notes: NS1 protein of Zika virus - qHTS assay to identify small molecule inhibitors in human HEK 293 cells (AID 1347053); further: nearly all actives have a fitted effect of over 55% in size
cond: HEK293 ZIKV MR766 infection, NS1 TR-FRET, 24 h; series mostly up to 46.1 µM
Records with an inconclusive call do not appear. Activity calls are given as the source filed them. Calls follow the shape of the dose curve; as a rule, active = well fitted inhibition curve with a large enough effect; inconclusive = small, poorly fitted or top-dose-only effect; inactive = no such curve, though single readings can be large or run the other way.
Outcome codes: yes for active, no for inactive

>>> label_class("CC[C@]1(O)C[C@H]2CN(CCC3=c4ccccc4=N[C]3[C@@](C(=O)OC)(c3cc4c(cc3OC)N(C)[C@H]3[C@@](O)(C(N)=O)[C@H](O)[C@]5(CC)C=CCN6CC[C@]43[C@@H]65)C2)C1")
"yes"
>>> label_class("CC(C)(C)c1[nH]cnc1C=c1[nH]c(=O)c(=Cc2ccccc2)[nH]c1=O")
"yes"
>>> label_class("COc1cc([C@@H]2c3cc4c(cc3[C@@H](O[C@@H]3O[C@@H]5CO[C@@H](C)O[C@@H]5[C@H](O)[C@@H]3O)[C@H]3COC(=O)[C@H]23)OCO4)cc(OC)c1O")
"yes"
>>> label_class("CC(=O)OCC(=O)[C@@]12OC(C)(C)O[C@H]1C[C@H]1[C@@H]3C[C@H](F)C4=CC(=O)C=C[C@]4(C)[C@@]3(F)[C@@H](O)C[C@@]12C")
"no"
>>> label_class("CCOc1ccccc1N=Nc1c(C)[nH]n(-c2nc(-c3ccccc3)cs2)c1=O")
"no"
>>> label_class("CC1(C)OC2CC3C4CC(F)C5=CC(=O)C=CC5(C)C4C(O)CC3(C)[C@]2(C(=O)CO)O1 (some centres undefined)")
"no"
>>> label_class("Cc1ccc(S(=O)(=O)Nc2nc3ccccc3nc2Nc2ccc3nsnc3c2)cc1")
"no"
>>> label_class("CC(C)C[C@@H](N)[C@H](O)C(=O)N[C@H](C(=O)N[C@H](C(=O)N[C@@H](CC(=O)O)C(=O)O)C(C)C)C(C)C")
"no"
>>> label_class("N#CC(=C1Nc2ccccc2S1)c1ccnc(OCc2ccc(CN3CCOCC3)cc2)n1")
"no"
>>> label_class("COc1cc(C=CC(=O)O)ccc1O")
"no"
>>> label_class("O=c1[nH]nc(OCCCc2ccc(Cl)cc2)c(NCc2cccnc2)c1Br")
"no"
>>> label_class("NC(=O)c1noc([C@H](CCCC2CCCCC2)CC(=O)NO)n1")
"yes"
>>> label_class("COc1ccnc(CS(=O)c2nc3ccc(OC(F)F)cc3[nH]2)c1OC (centres undefined)")
"no"
>>> label_class("CC(C)CN(C[C@H](O)[C@H](Cc1ccccc1)NC(=O)O[C@H]1CCOC1)S(=O)(=O)c1ccc(N)cc1")
"no"
>>> label_class("C[C@@]1(C(=O)Nc2ccc(F)nc2)CCCN1c1nc(Nc2cc(C3CC3)[nH]n2)c2cccn2n1")
"no"
>>> label_class("Cc1ccc(NC(=O)Nc2cc(C(F)(F)F)ccc2F)cc1Nc1ccc2c(c1)NC(=O)C2=Cc1ccc[nH]1")
"no"
>>> label_class("C[C@@H](NC(=O)c1ncnc(N)c1Cl)c1ncc(C(=O)Nc2cc(C(F)(F)F)c(Cl)cn2)s1")
"no"
>>> label_class("COc1ccc2cc1Oc1ccc(cc1)C[C@H]1c3cc(c(OC)cc3CCN1C)Oc1c(OC)c(OC)cc3c1[C@H](C2)N(C)CC3")
"no"
>>> label_class("COC(=O)N1CCN(Cc2cccc(NC(=O)Nc3ccc(C)nc3)c2F)CC1")
"no"
>>> label_class("COc1ccc2c(c1)c(C1=C(c3c[nH]c4ccccc34)C(=O)NC1=O)cn2CCCN(C)C")
"no"
>>> label_class("CO[C@H]1O[C@@H]2O[C@@]3(C)CC[C@@H]4[C@@H](C)CC[C@@H]([C@H]1C)[C@@]24OO3")
"no"
>>> label_class("O=C(CCCN1CCN(c2ccc(F)cc2)CC1)NC1c2ccccc2CSc2ccccc21 (centres undefined)")
"no"
>>> label_class("OC[C@H]1O[C@@H](OCCc2ccc(O)cc2)[C@H](O)[C@@H](O)[C@H]1O")
"no"
>>> label_class("C[C@@H](N)c1ccc(C(=O)Nc2ccnc3[nH]ccc23)cc1")
"no"
>>> label_class("O=C1NC(=O)C(c2cnc3ccccn23)=C1c1cn2c3c(cccc13)CN(C(=O)N1CCOCC1)CC2")
"yes"
>>> label_class("CCCCC(C)(C)[C@H](O)C=C[C@H]1[C@H](O)CC(=O)[C@H]1CC=CCCCC(=O)O")
"no"
>>> label_class("COc1cc(CNC(=O)CCCCC=CC(C)C)ccc1O")
"no"
>>> label_class("CNC(=O)c1ccc2c(C(=Nc3cccc(CN(C)C)c3)c3ccccc3)c(O)[nH]c2c1")
"no"
>>> label_class("CNC(=O)[C@H](Cc1ccccc1)NC(=O)[C@H](CC(C)C)[C@H](CSc1cccs1)C(=O)NO")
"no"
>>> label_class("Cc1[nH]c(C=C2C(=O)Nc3ccc(S(=O)(=O)N(C)c4cccc(Cl)c4)cc32)c(C)c1C(=O)N1CCN(C)CC1")
"no"
>>> label_class("C[C@H](CCC(=O)O)[C@H]1CC[C@H]2[C@H]3[C@@H](CC[C@]12C)[C@@]1(C)CC[C@@H](O)C[C@H]1C[C@@H]3O")
"no"
>>> label_class("CC1C(=O)OC2C(O)C34C5CC(C(C)(C)C)C36C(OC(=O)C6O)OC4(C(=O)O5)C12O (centres undefined)")
"no"
>>> label_class("Cc1csc(-c2nnc(Nc3ccc(Oc4ncccc4-c4ccnc(N)n4)cc3)c3ccccc23)c1")
"no"
>>> label_class("COc1cc2ncn(-c3cc(OCc4ccccc4S(C)(=O)=O)c(C#N)s3)c2cc1OC")
"no"

Values from PubChem BioAssay (NCATS)
